- Protocol notes: Primary qHTS for inhibitors of nuclear receptor binding SET domain protein 2 (NSD2) in an isogenic RCH-ACV NSD2 p.E1099K mutant (9B) (AID 1645876); note: nearly all actives have a fitted effect of over 70% in size
- Experimental conditions: RCH-ACV (leukaemia line) NSD2 E1099K (9B) viability, CellTiter-Glo, 72 h; series mostly up to 44.9 µM
Inconclusive results are not listed. Calls of active or inactive are those of the source. Calls come from the whole dose curve; as a rule, active = well fitted inhibition curve with a large enough effect; inconclusive = small, poorly fitted or top-dose-only effect; inactive = flat fitted curve, though single readings scatter.
Lab note: assign the record to one of 1.0 for active, 0.0 for inactive

Examples from the recorded data:
Compound	Label class
CC1=CC(=O)[C@]2(O[C@@H]3O[C@@H](C)[C@H](O)[C@@H](O)[C@H]3OC(=O)/C=C/c3ccccc3)C=CO[C@@H](O[C@@H]3O[C@H](CO)[C@@H](O)[C@H](O)[C@H]3O)[C@H]12	0.0
CCc1cnn2c(NCc3ccc[n+]([O-])c3)cc(N3CCCCC3CCO)nc12 (stereo not given)	1.0
COc1ccc(C(=O)n2c(C)c(Cc3cccc(O[C@@H](C)C(=O)O)c3)c3cc(OC(F)(F)F)ccc32)cc1	0.0
CC(C)(C)c1ccc(S(=O)(=O)NCc2ccc(C(=O)Nc3cccnc3)cc2)cc1	1.0
Cc1onc(C(=O)N2CCN(C(c3ccc(Cl)cc3)c3ccc(Cl)cc3)CC2)c1[N+](=O)[O-]	1.0
C[C@@H]1C[C@@H](O)[C@@]23CO[C@@H](O)[C@@H]2CCC[C@@H]3[C@@]12C[C@@H](c1ccoc1)OC2=O	0.0
CC1CCN(C(=O)CC#N)CC1N(C)c1ncnc2[nH]ccc12 (stereo not given)	0.0
CC(=O)/C=C/[C@H]1[C@](C)(O)[C@@H](O)[C@H](OC(C)=O)C2C(C)(C)CCC[C@@]21C (stereo not given in full)	0.0

*Q* Give the logged outcome of this assay for the following compound: `COc1cc(/C=C/C(=O)OC[C@H]2O[C@@](CO)(O[C@H]3O[C@H](CO)[C@@H](O)[C@H](O)[C@H]3O)[C@@H](OC(=O)/C=C/c3ccc(O)c(OC)c3)[C@@H]2O)ccc1O`
*A* 0.0

*Q* Give the logged outcome of this assay for the following compound: CC1=CC(=O)CC(C)(C)C1/C=C/C(C)O[C@@H]1O[C@H](CO)[C@@H](O)[C@H](O)[C@H]1O[C@@H]1OC[C@](O)(CO)[C@H]1O (stereo not given in full)
*A* 0.0
